- Test system: T47D
- testProtocol: NCI tumour cell line growth inhibition, 48 h
The source made the active and inactive calls. No stated cut-off is given here; in the data, active = GI50 up to about 1.1 µM and inactive = higher.
Outcomes: 1.0 for active, 0.0 for inactive

{"molecule": "CC(C)(C)c1ccc(O)c(CN(Cc2cc(C(C)(C)C)ccc2O)c2ccccc2)c1", "assignedCategory": 0.0}
{"molecule": "CCOC(=O)NNC(=O)NCc1cccc(CNC(=O)NNC(=O)OCC)c1", "assignedCategory": 0.0}
{"molecule": "COc1ccc2nc3cccc([N+](=O)[O-])c3c(NCCO)c2c1", "assignedCategory": 1.0}
{"molecule": "CN1CCN(c2cc3c(cc2F)c(=O)c(C(=O)O)cn3C2CC2)CC1CC#N (stereo unspecified)", "assignedCategory": 0.0}
{"molecule": "C=CCOC(=O)C1=C(CCC[C@@H](C)O[Si](C)(C)C(C)(C)C)N=C(N)N2[C@H](CCO)CC[C@@H]12", "assignedCategory": 0.0}
{"molecule": "CC1=CC(=O)c2ccc(C)cc2C1=O", "assignedCategory": 0.0}
{"molecule": "NC(=O)c1csc(C2OC(CO)C(O)C2O)n1 (stereo unspecified)", "assignedCategory": 0.0}
{"molecule": "Cc1ccc(/C=N/n2c(=O)[nH]c3ccccc3c2=O)cc1", "assignedCategory": 0.0}
{"molecule": "CC(C)C[S+]1C2=C(CC(C)(C)CC2=O)[N-]c2ccccc21 (stereo unspecified)", "assignedCategory": 0.0}
{"molecule": "OCCCNCc1ccncc1", "assignedCategory": 0.0}
{"molecule": "O=P1(Cc2ccccc2)N(Cc2ccccc2)[C@@H]2CCCC[C@H]2N1Cc1ccccc1", "assignedCategory": 0.0}
{"molecule": "OC(c1cc(C(O)(C(F)(F)F)C(F)(F)F)ncn1)(C(F)(F)F)C(F)(F)F", "assignedCategory": 0.0}
{"molecule": "N#C/C(=C\\c1ccccc1)C(=O)Nc1nnc(-c2ccccc2)o1", "assignedCategory": 0.0}
{"molecule": "COc1ccc2c(O)c1-c1c(OC)ccc(c1O)SSc1ccc(OC)c(c1O)-c1c(OC)ccc(c1O)SS2", "assignedCategory": 0.0}
{"molecule": "O[C@]12C=C(c3nccc4c3[nH]c3ccccc34)[C@@H]3CCN(CCCC/C=C\\CC1)C[C@@]31CC3/C=C\\CCCCN3[C@H]12 (stereo partly specified)", "assignedCategory": 1.0}
{"molecule": "CCOC(=O)C1(Cc2ccc3c(c2)CCC3)Cc2cc3c(cc2C1)CCC3", "assignedCategory": 0.0}
{"molecule": "O=[N+]([O-])c1cccc(-c2cn3c(n2)Cc2ccccc2C3)c1", "assignedCategory": 0.0}
{"molecule": "NC12c3c4cccc3Oc3cccc(c31)Oc1cccc(c12)O4", "assignedCategory": 0.0}
{"molecule": "CCCCCCCC/C=C1\\CCC(CN2CCOCC2)C1=O (stereo unspecified)", "assignedCategory": 0.0}
{"molecule": "NC(=S)Nc1nc(=S)[nH]c2c1SC1=N/C(=C\\c3ccco3)C(=O)N12", "assignedCategory": 0.0}
{"molecule": "O=C1CC(C(O)CO)CC(=O)N1 (stereo unspecified)", "assignedCategory": 0.0}

* * *

- System: HL-60
- testProtocol: NCI tumour cell line growth inhibition, 48 h
Calls of active or inactive are those of the source. No stated cut-off is given here; in the data, active = GI50 up to about 1.1 µM and inactive = higher.
Outcomes: active, inactive

{"molecule": "NC(=O)c1csc(C2OC(CO)C(O)C2O)n1 (stereo unspecified)", "assignedCategory": "inactive"}
{"molecule": "Nn1c(Sc2nc3ccccc3c(=O)n2N)nc2ccccc2c1=O", "assignedCategory": "inactive"}
{"molecule": "Cc1[nH]c2ccccc2c1CC/C(=N\\Nc1ccccc1)c1ccccc1", "assignedCategory": "inactive"}
{"molecule": "O=C1CCCCc2cccc(O)c21", "assignedCategory": "inactive"}
{"molecule": "c1ccc2c(c1)-c1ccccc1C2N1CC2CCC(CC2)C1", "assignedCategory": "inactive"}
{"molecule": "CCCCCCCCCCCCOCCCCCCCCC/C=C/c1ccc2c(c1)OCCOCCOCCOCCO2", "assignedCategory": "inactive"}
{"molecule": "CC[C@H](CO)Nc1nc(NCc2ccccc2)c2ncn(C(C)C)c2n1", "assignedCategory": "inactive"}
{"molecule": "CC(=O)Nc1ccc2c3c(cc(O)c2c1)N(C(=O)CCCCCC(=O)N1CC(CCl)c2c1cc(O)c1cc(NC(C)=O)ccc21)CC3CCl (stereo unspecified)", "assignedCategory": "active"}
{"molecule": "C=C1CCCC2OC(OC)CCC12 (stereo unspecified)", "assignedCategory": "inactive"}
{"molecule": "Oc1cc(-c2cccc(Br)c2)nc2cc3c(cc12)OCO3", "assignedCategory": "inactive"}
{"molecule": "O=C1CC2OCC=C3CN4CCC5(C(=O)O)C(N1)C2C3CC45 (stereo unspecified)", "assignedCategory": "inactive"}
